Tgt: human melanocortin-4 receptor (human, UniProt P32245 1-332)
Sequence (P32245 whole entry): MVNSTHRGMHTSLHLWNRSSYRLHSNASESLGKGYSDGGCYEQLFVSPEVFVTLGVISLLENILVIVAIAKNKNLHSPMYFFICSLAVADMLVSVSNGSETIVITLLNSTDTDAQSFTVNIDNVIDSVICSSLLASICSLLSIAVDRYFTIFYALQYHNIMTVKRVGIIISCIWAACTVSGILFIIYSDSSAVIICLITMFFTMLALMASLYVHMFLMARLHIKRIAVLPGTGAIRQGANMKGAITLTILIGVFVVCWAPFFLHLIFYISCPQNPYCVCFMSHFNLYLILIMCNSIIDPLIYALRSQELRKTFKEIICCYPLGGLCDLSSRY
Procedure text: cell-based or functional assay
Positions of bridges follow the written chain, without caps; N, C: chain ends. Non-standard residues stand in square brackets, D forms with d. dPhe(3,4,5-F3) = N[C@H](Cc1cc(F)c(F)c(F)c1)C(=O)O; dPhe(2-CF3) = N[C@H](Cc1ccccc1C(F)(F)F)C(=O)O; dPhe(3,5-F2) = N[C@H](Cc1cc(F)cc(F)c1)C(=O)O; dPhe(4-CN) = N#Cc1ccc(C[C@@H](N)C(=O)O)cc1; dPhe(3-Cl) = N[C@H](Cc1cccc(Cl)c1)C(=O)O; dPhe(2-Cl) = N[C@H](Cc1ccccc1Cl)C(=O)O; dPhe(2-Me) = Cc1ccccc1C[C@@H](N)C(=O)O; dPhe(4-F) = N[C@H](Cc1ccc(F)cc1)C(=O)O; dPhe(2-F) = N[C@H](Cc1ccccc1F)C(=O)O; Orn = NCCC[C@H](N)C(=O)O
Catalogue of EC50, cAMP, 10 ng/mL Doxycycline readings, one per entry.
Measured endpoint: EC50, cAMP, 10 ng/mL Doxycycline (nM)

Ac-REE[dPhe(4-CN)]RW[Orn]-OH (lactam 2-7) [Ac-Arg-cyclo(Glu-Glu-D-Phe(4-CN)-Arg-Trp-Orn)-OH] :: 269
Ac-REN[dPhe(4-F)]RW[Orn]-NH2 (lactam 2-7, also called No. 69) [Ac-Arg-cyclo(Glu-Asn-D-Phe(4-F)-Arg-Trp-Orn)-NH2] :: 0.095
Ac-R[Orn]N[dPhe(3,4,5-F3)]RWE-NH2 (lactam 2-7) [Ac-Arg-cyclo(Orn-Asn-D-Phe(3,4,5-triF)-Arg-Trp-Glu)-NH2] :: 0.235
Ac-REQ[dPhe(2-F)]RW[Orn]-NH2 (lactam 2-7, also called No. 59) [Ac-Arg-cyclo(Glu-Gln-D-Phe(2-F)-Arg-Trp-Orn)-NH2] :: 0.1
XDQXRWK (N-terminal Ac; D-Arg 1; D-Phe(4-CN) 4; lactam Asp 2-Lys 7; C-terminal NH2, also called No. 81) [Ac-D-Arg-cyclo(Asp-Gln-D-Phe(4-CN)-Arg-Trp-Lys)-NH2] :: 0.45
Ac-R[Orn]N[dPhe(2-F)]RWE-NH2 (lactam 2-7, also called No. 71) [Ac-Arg-cyclo(Orn-Asn-D-Phe(2-F)-Arg-Trp-Glu)-NH2] :: 0.085
Ac-RES[dPhe(2-F)]RW[Orn]-NH2 (lactam 2-7, also called No. 58) [Ac-Arg-cyclo(Glu-Ser-D-Phe(2-F)-Arg-Trp-Orn)-NH2] :: 0.25
Ac-REN[dPhe(2-CF3)]RW[Orn]-NH2 (lactam 2-7, also called No. 116) [Ac-Arg-cyclo(Glu-Asn-D-Phe(2-CF3)-Arg-Trp-Orn)-NH2] :: 0.095
Ac-REQ[dPhe(3-Cl)]RW[Orn]-NH2 (lactam 2-7, also called No. 38) [Ac-Arg-cyclo(Glu-Gln-D-Phe(3-Cl)-Arg-Trp-Orn)-NH2] :: 0.258
Ac-REN[dPhe(3,5-F2)]RW[Orn]-NH2 (lactam 2-7, also called No. 76) [Ac-Arg-cyclo(Glu-Asn-D-Phe(3,5-diF)-Arg-Trp-Orn)-NH2] :: 0.135
Ac-REP[dPhe(4-F)]RW[Orn]-NH2 (lactam 2-7; also: acetate salt, acetate salt form; also called Ex 67) [Ac-Arg-cyclo(Glu-Pro-D-Phe(4-F)-Arg-Trp-Orn)-NH2] :: 0.14
Ac-R[Orn]P[dPhe(2-F)]RWE-NH2 (lactam 2-7; SMILES CC(=O)N[C@@H](CCCNC(=N)N)C(=O)N[C@H]1CCCNC(=O)CC[C@@H](C(N)=O)NC(=O)[C@H](Cc2c[nH]c3ccccc23)NC(=O)[C@H](CCCNC(=N)N)NC(=O)[C@@H](Cc2ccccc2F)NC(=O)[C@@H]2CCCN2C1=O) [Ac-Arg-cyclo(Orn-Pro-D-Phe(2-F)-Arg-Trp-Glu)-NH2] :: 0.15
Ac-REN[dPhe(2-Me)]RW[Orn]-NH2 (lactam 2-7, also called No. 73) [Ac-Arg-cyclo(Glu-Asn-D-Phe(2-Me)-Arg-Trp-Orn)-NH2] :: 0.068
Ac-RET[dPhe(3-Cl)]RW[Orn]-NH2 (lactam 2-7; SMILES CC(=O)N[C@@H](CCCNC(=N)N)C(=O)N[C@H]1CCC(=O)NCCC[C@@H](C(N)=O)NC(=O)[C@H](Cc2c[nH]c3ccccc23)NC(=O)[C@H](CCCNC(=N)N)NC(=O)[C@@H](Cc2cccc(Cl)c2)NC(=O)[C@H]([C@@H](C)O)NC1=O, also called No. 36) [Ac-Arg-cyclo(Glu-Thr-D-Phe(3-Cl)-Arg-Trp-Orn)-NH2] :: 1
Ac-R[Orn]N[dPhe(2-CF3)]RWE-NH2 (lactam 2-7) [Ac-Arg-cyclo(Orn-Asn-D-Phe(2-CF3)-Arg-Trp-Glu)-NH2] :: 0.18
Ac-R[Orn]N[dPhe(3,5-F2)]RWE-NH2 (lactam 2-7, also called No. 77) [Ac-Arg-cyclo(Orn-Asn-D-Phe(3,5-diF)-Arg-Trp-Glu)-NH2] :: 0.155
Ac-REQ[dPhe(4-CN)]RW[Orn]-OH (lactam 2-7, also called No. 86) [Ac-Arg-cyclo(Glu-Gln-D-Phe(4-CN)-Arg-Trp-Orn)-OH] :: 0.483
Ac-REQ[dPhe(2-Cl)]RW[Orn]-NH2 (lactam 2-7, also called No. 34) [Ac-Arg-cyclo(Glu-Gln-D-Phe(2-Cl)-Arg-Trp-Orn)-NH2] :: 0.137
Ac-REQ[dPhe(4-CN)]RW[Orn]-NH2 (lactam 2-7; also: acetate salt, acetate salt form; also called Ex 46) [Ac-Arg-cyclo(Glu-Gln-D-Phe(4-CN)-Arg-Trp-Orn)-NH2] :: 0.173
Ac-RER[dPhe(3-Cl)]RW[Orn]-NH2 (lactam 2-7; SMILES CC(=O)N[C@@H](CCCNC(=N)N)C(=O)N[C@H]1CCC(=O)NCCC[C@@H](C(N)=O)NC(=O)[C@H](Cc2c[nH]c3ccccc23)NC(=O)[C@H](CCCNC(=N)N)NC(=O)[C@@H](Cc2cccc(Cl)c2)NC(=O)[C@H](CCCNC(=N)N)NC1=O, also called No. 99) [Ac-Arg-cyclo(Glu-Arg-D-Phe(3-Cl)-Arg-Trp-Orn)-NH2] :: 0.14
